Catalogue of % pSTAT3+ Jurkat cells, 0.1 nM rhIL-21 + 3.9906 nM antibody values
- study.system: recombinant human IL-21 (rhIL-21) (human, UniProt Q9HBE4 30-162, limits assumed)
- Sequence (Q9HBE4 30-162 limits assumed): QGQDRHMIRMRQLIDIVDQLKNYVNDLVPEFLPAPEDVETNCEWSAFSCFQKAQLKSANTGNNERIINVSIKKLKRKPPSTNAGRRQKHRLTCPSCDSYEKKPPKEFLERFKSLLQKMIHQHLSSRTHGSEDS
- assay: cell-based or functional assay
Field format: number, assumed %, no unit text.

Reference set, count: 3
binder	value.observed
LKK631 (antibody, human IgG1, V domains shown) VH: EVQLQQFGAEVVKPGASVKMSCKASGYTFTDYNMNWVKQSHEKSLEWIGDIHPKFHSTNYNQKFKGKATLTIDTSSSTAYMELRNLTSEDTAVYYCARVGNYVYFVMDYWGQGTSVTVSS VL: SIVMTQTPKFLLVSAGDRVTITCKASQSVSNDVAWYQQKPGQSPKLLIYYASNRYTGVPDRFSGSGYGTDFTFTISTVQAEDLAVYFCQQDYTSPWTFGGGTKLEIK	42
FYP014 (antibody, human IgG1, V domains shown, human IgG1; also called EP3103813A1 clone 366.328.10.63) VH: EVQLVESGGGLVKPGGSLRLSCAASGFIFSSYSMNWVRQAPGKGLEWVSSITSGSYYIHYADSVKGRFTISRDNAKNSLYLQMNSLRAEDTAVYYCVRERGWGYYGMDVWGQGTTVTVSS VL: AIQLTQSPSSLSASVGDRVTITCRASQDIDSALAWYQQKPGKAPKILIHDASSLESGVPSRFSGSGSGTDFTLTISSLQPEDFATYYCQQFNSYPYTFGQGTKLEIK	4.64
MIZ926 (antibody, human IgG1, V domains shown) VH: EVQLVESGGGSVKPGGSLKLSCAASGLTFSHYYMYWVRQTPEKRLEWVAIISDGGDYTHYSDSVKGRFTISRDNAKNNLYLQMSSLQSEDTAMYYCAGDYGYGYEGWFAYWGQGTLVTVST VL: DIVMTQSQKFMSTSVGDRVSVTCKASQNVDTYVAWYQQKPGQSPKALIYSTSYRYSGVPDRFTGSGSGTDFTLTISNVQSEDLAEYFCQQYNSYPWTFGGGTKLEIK	61.8

Shift focus to the following entry.
-- ask Please report % pSTAT3+ Jurkat cells, 0.1 nM rhIL-21 + 3.9906 nM antibody for the following binder: ZAP122 (antibody, human IgG1, V domains shown) VH: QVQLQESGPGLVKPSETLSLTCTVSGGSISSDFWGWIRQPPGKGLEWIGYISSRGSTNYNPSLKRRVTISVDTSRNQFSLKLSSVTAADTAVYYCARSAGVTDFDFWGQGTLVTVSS VL: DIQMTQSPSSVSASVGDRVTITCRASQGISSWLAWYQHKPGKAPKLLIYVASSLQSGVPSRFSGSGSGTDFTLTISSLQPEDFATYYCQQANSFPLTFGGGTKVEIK
-- reply 5.32
